This listing pairs compounds with measured CLhep predicted at 10 µM.
- assay_notes: Clearance in human hepatocytes at 10 uM by UPLC/TOF-MS analysis
- Assay type: ADME, cell-based, Hepatocyte
Lab book: enter the figure in mL/min/kg, no units written.

# compound_smiles, result_value
rows = [
    ("COc1ccc(-c2ccc3c(c2)COC3=O)n2nc(C3(C(=O)OCC(C)C)CC3)nc12", 17),
]

So what's the measured CLhep predicted at 10 µM for this one? COc1ccc(-c2ccc(C(=O)O)c(CO)c2)n2nc(C3(C(=O)OCC(C)(C)O)CC3)nc12
7.1

// query CLhep predicted at 10 µM value for entry COc1ccc(-c2ccc3c(c2)COC3=O)n2nc(C3(C(=O)O)CC3)nc12
5.2

# input compound: COc1ccc(-c2ccc3c(c2)COC3=O)n2nc(C3(C(=O)OCC(C)(C)O)CC3)nc12 ; wanted: its CLhep predicted at 10 µM
16

Endpoint output: CLhep predicted at 10 µM of COc1ccc(-c2ccc(C(=O)O)c(CO)c2)n2nc(C3(C(=O)OCC(C)C)CC3)nc12 . Value?
13

====

- assay_notes: Drug exposure in Isobutyl 1-[8-Methoxy-5-(1-oxo-3H-isobenzofuran-5-yl)-[1,2,4]-triazolo[1,5-a]pyridin-2-yl]cyclopropanecarboxylate dosed cynomolgus monkey assessed as ratio of drug level to total AUC
- Format: ADME, organism-based, Macaca fascicularis
- condition_summary: in vivo
We begin with a simple list: items and their reported Drug uptake.
API: value field is a number in %; no unit string.

# compound_smiles, Drug uptake (%)
measured = [
    ("COc1ccc(-c2ccc3c(c2)COC3=O)n2nc(C3(C(=O)O)CC3)nc12", 45),
    ("COc1ccc(-c2ccc3c(c2)COC3=O)n2nc(C3(C(=O)OCC(C)C)CC3)nc12", 4),
    ("COc1ccc(-c2ccc(C(=O)O)c(CO)c2)n2nc(C3(C(=O)O)CC3)nc12", 13),
    ("COc1ccc(-c2ccc3c(c2)COC3=O)n2nc(C3(C(=O)OCC(C)(C)O)CC3)nc12", 0.1),
    ("COc1ccc(-c2ccc(C(=O)O)c(CO)c2)n2nc(C3(C(=O)OCC(C)C)CC3)nc12", 36),
]

Proceed to the following item.
Record request: Drug uptake value, item COc1ccc(-c2ccc(C(=O)O)c(CO)c2)n2nc(C3(C(=O)OCC(C)(C)O)CC3)nc12
1

====

- assay_notes: Drug exposure in of Isobutyl 1-[8-Methoxy-5-(1-oxo-3H-isobenzofuran-5-yl)-[1,2,4]-triazolo[1,5-a]pyridin-2-yl]cyclopropanecarboxylate dosed Sprague-Dawley rat assessed as ratio of drug level to total AUC at 0.075 mg/kg, iv measured up to 30 mins by LC-MS/MS analysis
- Type: ADME, organism-based
- condition_summary: in vivo, 0.5 h
test_readout: Drug uptake (%)
Provide only the numeric value, understood in %.

Record excerpt, results attached:
# compound_smiles, Drug uptake, %
records = [
    ("COc1ccc(-c2ccc(C(=O)O)c(CO)c2)n2nc(C3(C(=O)O)CC3)nc12", 14),
    ("COc1ccc(-c2ccc3c(c2)COC3=O)n2nc(C3(C(=O)OCC(C)C)CC3)nc12", 6),
    ("COc1ccc(-c2ccc3c(c2)COC3=O)n2nc(C3(C(=O)O)CC3)nc12", 55),
]

Data request, read-out Drug uptake, for COc1ccc(-c2ccc(C(=O)O)c(CO)c2)n2nc(C3(C(=O)OCC(C)C)CC3)nc12
26
